Property: IC50, inhibition of IL-8 release (K299 single cell assay with cyno CD30L LZ); scope: individual binders
Molecular target: T1, cyno CD30L LZ (cynomolgus monkey, UniProt A0A7N9CVX7 63-234)
T1 sequence: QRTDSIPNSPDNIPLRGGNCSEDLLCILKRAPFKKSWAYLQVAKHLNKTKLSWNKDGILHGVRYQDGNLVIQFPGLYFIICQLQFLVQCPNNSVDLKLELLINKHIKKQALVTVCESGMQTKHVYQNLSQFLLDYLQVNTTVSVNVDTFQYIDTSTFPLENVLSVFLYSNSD
Experiment: cell-based or functional assay
Your answer should be a plain number; it is taken to be in nM.

Examples with their reported IC50, inhibition of IL-8 release (K299 single cell assay with cyno CD30L LZ) follow.
{"Binder": "Antibody D (antibody, V domains shown, also called mAb D) VH: QVQLQESGPGLVKPSETLSLTCTVSGGSISSYSWSWIRQPAGKGLEWIGRTSTSGRNNYNPSLKSRVTMSVDTSKNQFSLKLNSVTAADTAVYYCARDFTIAARRYYYYGMDVWGQGTTVTVSS VL: QSALTQPASVSGSPGQSITISCTGTSSDIGLYNYVSWYQQHPGKAPKLIIYEVINRPSGVSNRFSGSESGNTASLTISGLQAEDEANYYCSSYTSSSTWVFGGGTKLTVL", "Test value": 5.4}
{"Binder": "Antibody C (antibody, V domains shown, also called mAb C) VH: QVQLQESGPGLVKPSETLSLTCTVSGGSISSYYWTWIRQPAGKGLEWIGRIYTSGITNYNPSLKSRVTMSVDTSKNQFSLKLSSVTAADTAVYYCARERVVGASRYYYYGVDVWGQGTTVTVSS VL: QSALTQPASVSGSPGQSITISCTGTSSDIGLYDYVSWYQQHPDRAPKLIIFEVNNRPSGVSYRFSGSNSGNTASLTISGLQAEDEADYYCSSYTSSSTWVFGGGTKLTVL", "Test value": 3.9}

Name the recorded IC50, inhibition of IL-8 release (K299 single cell assay with cyno CD30L LZ) for Antibody B (antibody, V domains shown, also called mAb B) VH: QVQLQESGPGLVKPSETLSLTCTVSGGSISSYYWTWIRQPAGKGLEWIGRIYTSGITNYNPSLKSRVTMSVDTSKNQFSLKLSSVTAADTAVYYCARERVVGASRYYYYGVDVWGQGTTVTVSS VL: QSALTQPASVSGSPGQSITISCTGTSSDVGLYNYVSWYQQHPDKAPKLMIFEVNNRPSGVSNRFSGSNSGNTASLTISGLQAEDEADYYCSSYTSSSTWVFGGGTKLTVL .
5.6
